- assayed target: T1, mouse tenascin-C rCd4-His-FBG (rat; mouse, UniProt P05540 207-392, limits assumed)
- T1 construct: domain: domains 3 and 4; C-terminal FBG fusion; biotinylated in the ELISA screen; also called Mu TNC; mouse TNC rCd4-His-FBG; not shown: 6His tag
- T1 sequence (chain (part 1 of 2)): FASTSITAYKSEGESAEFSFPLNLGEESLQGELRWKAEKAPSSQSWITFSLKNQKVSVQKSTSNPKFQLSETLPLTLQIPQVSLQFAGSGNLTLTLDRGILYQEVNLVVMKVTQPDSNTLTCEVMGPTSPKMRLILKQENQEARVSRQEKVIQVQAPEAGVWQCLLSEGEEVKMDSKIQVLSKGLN
- T1 sequence (chain (part 2 of 2)): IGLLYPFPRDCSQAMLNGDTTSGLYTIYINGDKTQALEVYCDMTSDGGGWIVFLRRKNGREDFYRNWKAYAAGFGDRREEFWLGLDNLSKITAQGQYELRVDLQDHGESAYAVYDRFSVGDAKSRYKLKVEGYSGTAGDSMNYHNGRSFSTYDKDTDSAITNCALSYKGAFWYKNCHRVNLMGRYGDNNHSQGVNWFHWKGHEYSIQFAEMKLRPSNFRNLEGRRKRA
- assay method text: SPR off-rate screen, captured IgG4 supernatant, 25 C
quantity: koff
The number alone won't do; follow it with the unit.

Solved cases (4 shown):
# binder, assay value
data = [
    ("165_13_B6 human IgG4 (antibody, V domains shown, human IgG4 with hinge S241P) VH: QVQLVESGGGLVQPGRSLRLSCAASGFTFDDYAMHWVRQAPGKGLEWVSGISGSGGSTYYADSVKGRFTISRDNAKNSLYLQMNSLRAEDTALYYCAKGQKGEGDTFDIWGQGTMVTVSS VL: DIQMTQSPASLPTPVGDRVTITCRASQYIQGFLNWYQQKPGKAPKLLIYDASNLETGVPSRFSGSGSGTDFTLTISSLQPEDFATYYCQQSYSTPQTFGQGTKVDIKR", "6.9e-06 s⁻¹"),
    ("162_02_F4 human IgG4 (antibody, V domains shown, human IgG4 with hinge S241P; also called Antibody 162 02 F4 (derived from 2A5)) VH: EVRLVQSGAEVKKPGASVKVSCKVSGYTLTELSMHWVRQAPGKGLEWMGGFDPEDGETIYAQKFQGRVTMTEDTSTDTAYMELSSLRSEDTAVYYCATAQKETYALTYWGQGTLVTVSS VL: DIQMTQSPASLPTSVGDRVTITCRASQYIQGFLNWYQQKPGKAPRLLIYAASTLQDGVPSRFSGSGYGTDFTLTISSLQPEDFATYYCMHHYRSPWTFGQGTKVEIKR", "0.001 s⁻¹"),
    ("161_01_F6 human IgG4 (antibody, V domains shown, human IgG4 with hinge S241P; also called 160_01_F6; Antibody 161 01 F6, also known as 160 01 F6 (derived from 2A5)) VH: EVRLVQSGAEVKKPGASVKVSCKVSGYTLTELSMHWVRQAPGKGLEWMGGFDPEDGETIYAQKFQGRVTMTEDTSTDTAYMELSSLRSEDTAVYYCATAQKENIANRHWGQGTLVTVSS VL: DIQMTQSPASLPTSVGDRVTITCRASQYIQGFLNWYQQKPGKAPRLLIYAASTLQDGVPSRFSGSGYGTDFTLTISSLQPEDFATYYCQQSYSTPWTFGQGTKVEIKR", "0.00171 s⁻¹"),
    ("162_02_C2 human IgG4 (antibody, V domains shown, human IgG4 with hinge S241P; also called Antibody 162 02 C2 (derived from 2A5)) VH: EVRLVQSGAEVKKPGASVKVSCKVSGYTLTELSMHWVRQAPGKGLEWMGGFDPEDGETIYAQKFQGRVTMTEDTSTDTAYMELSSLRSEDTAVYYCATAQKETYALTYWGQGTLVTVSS VL: DIQMTQSPASLPTSVGDRVTITCRASQYIQGFLNWYQQKPGKAPRLLIYAASTLQDGVPSRFSGSGYGTDFTLTISSLQPEDFATYYCMHHYRAPWTFGQGTKVEIKR", "0.0017 s⁻¹"),
]

API: the following record is the query input.
Give a short answer stating reported koff for 162_02_C1 human IgG4 (antibody, V domains shown, human IgG4 with hinge S241P; also called Antibody 162 02 C1 (derived from 2A5)) VH: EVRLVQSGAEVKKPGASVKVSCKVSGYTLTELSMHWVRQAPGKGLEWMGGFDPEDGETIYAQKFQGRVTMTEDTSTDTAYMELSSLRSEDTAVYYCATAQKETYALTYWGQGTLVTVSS VL: DIQMTQSPASLPTSVGDRVTITCRASQYIQGFLNWYQQKPGKAPRLLIYAASTLQDGVPSRFSGSGYGTDFTLTISSLQPEDFATYYCLHHYRAPWTFGQGTKVEIKR .
0.0016 s⁻¹
